procedureSummary: 75Q-TubH aggregate inhibition, S. cerevisiae, yeast (AID 1616)
conditionsUsed: S. cerevisiae 75Q-TubH polyglutamine aggregation suppression; stronger effect = higher value
Cut-off 1 on aggregation suppression score, inclusive. At or above means t; below means f.

In [3]: df
Out[3]:
                                entrysmiles  classassignment
0   NS(=O)(=O)c1cc(C(=O)O)c(NCc2ccco2)cc1Cl                f
1  CC1=C(C(=O)O)N2C(=O)[C@@H](NC(=O)[C@H](N)c3ccc(O)cc3)[C@H]2SC1                t

## Input Could you tell me if the measured aggregation suppression score of COC(=O)Nc1nc2ccc(Sc3ccccc3)cc2[nH]1 reaches 1 or more?
## Output f

## Input Could you tell me if the measured aggregation suppression score of COc1cc(NS(=O)(=O)c2ccc(N)cc2)nc(OC)n1 reaches 1 or more?
## Output t

## Input Could you tell me if the measured aggregation suppression score of O=C(O)CCC(=O)c1ccc(-c2ccccc2)cc1 reaches 1 or more?
## Output f

## Input Could you tell me if the measured aggregation suppression score of Cc1ccnc(NS(=O)(=O)c2ccc(N)cc2)n1 reaches 1 or more?
## Output t

## Input Could you tell me if the measured aggregation suppression score of CN(C)c1ccc(C(=C2C=CC(=[N+](C)C)C=C2)c2ccc(N(C)C)cc2)cc1 reaches 1 or more?
## Output f

## Input Could you tell me if the measured aggregation suppression score of O=C(O)CCCCCCCC(=O)O reaches 1 or more?
## Output f

## Input Could you tell me if the measured aggregation suppression score of Clc1ccccc1C(c1ccccc1)(c1ccccc1)n1ccnc1 reaches 1 or more?
## Output f

## Input Could you tell me if the measured aggregation suppression score of CCN(CC)CCOC(=O)C(c1ccccc1)c1ccccc1 reaches 1 or more?
## Output f

## Input Could you tell me if the measured aggregation suppression score of CCCCOc1ccc(CC(=O)NO)cc1 reaches 1 or more?
## Output t

## Input Could you tell me if the measured aggregation suppression score of CCn1cc(C(=O)O)c(=O)c2cc3c(cc21)OCO3 reaches 1 or more?
## Output t
